system: MDA-MB-231 breast; experiment: NCI-60 one-dose screen, 48 h (100 = growth as untreated, 0 = no growth, -100 = all killed); conditions: 10 µM unless noted
This is part of a sample that, as a whole, favours compounds with a hit. Of some 83,000 tested, about 20% had one in any assay. Calls of active or inactive are those of the source. Rule for the calls: active = growth percent below 10; inactive = the rest.
metric-name: growth

Worked cases, growth given:
[
  {
    "molecule": "CCNC(=O)N1CCc2cc(OC)c(OCCc3ccc(OC)cc3)cc2C1c1ccc(OC)cc1C (stereo not given)",
    "endpoint-result": "19.7% (inactive)"
  },
  {
    "molecule": "Cc1cc(C)c2sc(=O)n(Cc3nnc(SCCC(=O)O)o3)c2n1",
    "endpoint-result": "97.5% (inactive)"
  }
]

Query: What growth value was documented for this molecule, COC(=O)c1[nH]nc2c1C1(C(=O)N(C)c3ccccc31)C(C#N)=C(N)O2 (stereo not given) ?
Result: 107% (inactive)

Query: Do the same for `O=C(Nc1nonc1-c1ccccc1)c1ccc(C(F)(F)F)cc1` please
Result: 85.1% (inactive)

Query: Do the same for `N/C(=N\C(N)=N\c1nc2ccccc2s1)c1cccc(F)c1` please
Result: 78.7% [5 µM] (inactive)
